Listing of recorded Plant response rating, Ryegrass, Italian by entry.
tested on: ryegrass, Italian (Italian ryegrass, Lolium multiflorum); experiment: Test C postemergence, plant response rating; type: in vivo; conditions: 31 g ai/ha, scale 0 to 100
Text: […]
# respond with the number and nothing more

O=C(CCC(F)(F)C(F)(F)F)c1c(Br)cccc1Oc1ncc(Cl)cn1 [Compound 110]
10
O=C(OCCC(F)(F)F)c1c(Br)cccc1Oc1ncc(Br)cn1 [Compound 33]
5
CCCC(=O)c1c(Oc2ncc(Cl)cn2)cccc1C(F)(F)F [Compound 136]
5

Continue with the next compound.
Ask | // Plant response rating, Ryegrass, Italian lookup, key: N#Cc1cccc(Oc2ncc(Cl)cn2)c1CCCC(F)(F)F [Compound 72]
Reply | 5

====

system: wheat (Triticum aestivum); assay: Test A postemergence, visual injury rating; format: in vivo; details: 500 g ai/ha, 0 is no effect, 100 is complete control
Description: […]
measure name: Wheat plant response rating (0 to 100 scale)

Solved entries:
O=C(OCC(F)(F)F)c1c(F)cccc1Oc1ncc(Cl)cn1 [Compound 48]
0
C=CCSC(=O)c1c(Br)cccc1Oc1ncc(Cl)cn1 [Compound 91]
30
O=C(OCCCC(F)(F)F)c1c(Oc2ncc(Cl)cn2)cccc1C(F)(F)F [Compound 65]
0
CCCCC(=O)c1c(Br)cccc1Oc1ncc(Cl)cn1 [Compound 79]
30
O=C(OCCC(F)(F)F)c1c(F)cccc1Oc1ncc(Cl)cn1 [Compound 42]
0
N#CCOC(=O)c1c(F)cccc1Oc1ncc(Cl)cn1 [Compound 49]
0
CC(C)=CCOC(=O)c1c(Br)cccc1Oc1ncc(Cl)cn1 [Compound 11]
0
CCCC(=O)c1c(Br)cccc1Oc1ncc(Cl)cn1 [Compound 75]
70

Continue with the next compound.
Ask | // Wheat plant response rating (0 to 100 scale) lookup, key: N#CCOC(=O)c1c(C#N)cccc1Oc1ncc(Cl)cn1 [Compound 39]
Reply | 0

====

system: nightshade (eastern black nightshade, Solanum ptycanthum); assay: Test C postemergence, plant response rating; type: in vivo; details: 31 g ai/ha, scale 0 to 100
measure name: Plant response rating, Nightshade
# respond with the number and nothing more

Solved entries:
N#Cc1cccc(Oc2ncc(Cl)cn2)c1COCCC(F)(F)F
65
FC(F)(F)CCCCc1c(Cl)cccc1Oc1ncc(Cl)cn1
80
O=C(CCCC(F)(F)F)c1c(Cl)cccc1Oc1ncc(Cl)cn1
85

Continue with the next compound.
Ask | // Plant response rating, Nightshade lookup, key: `CCCCC(=O)c1c(Br)cccc1Oc1ncc(Cl)cn1`
Reply | 95

====

tested on: blackgrass (Alopecurus myosuroides); test: Test A postemergence, visual injury rating; format: in vivo; conditions: 31 g ai/ha, 0 to 100 scale, 0 is no effect, 100 is complete control, approximately 10 days
From the text: […]
measure name: Blackgrass plant response rating
# respond with the number and nothing more

Ask | // Blackgrass plant response rating lookup, key: `O=C(CCCC(F)(F)F)c1c(Br)cccc1Oc1ncc(Cl)cn1`
Reply | 20

Ask | // Blackgrass plant response rating lookup, key: C=CC(C)COC(=O)c1c(Br)cccc1Oc1ncc(Cl)cn1 (stereo not drawn)
Reply | 0

Ask | // Blackgrass plant response rating lookup, key: `FC(F)(F)CCCc1c(Br)cccc1Oc1ncc(Cl)cn1`
Reply | 20

====

test system: nutsedge, yellow (yellow nutsedge, Cyperus esculentus); assay: Test C postemergence, plant response rating; format: in vivo; settings: 62 g ai/ha, scale 0 to 100 (0 no effect, 100 complete control)
measure name: Nutsedge, Yellow plant response rating

Ask | // Nutsedge, Yellow plant response rating lookup, key: `CCCCC(=O)c1c(Oc2ncc(Cl)cn2)cccc1C(F)(F)F`
Reply | 5

Ask | // Nutsedge, Yellow plant response rating lookup, key: `N#Cc1cccc(Oc2ncc(Cl)cn2)c1CCCC(F)(F)F`
Reply | 10

Ask | // Nutsedge, Yellow plant response rating lookup, key: `O=C(OCC(F)(F)F)c1c(Br)cccc1Oc1ncc(Cl)cn1`
Reply | 0

Ask | // Nutsedge, Yellow plant response rating lookup, key: `CCCC(=O)c1c(Oc2ncc(Cl)cn2)cccc1C(F)(F)F`
Reply | 0

Ask | // Nutsedge, Yellow plant response rating lookup, key: `O=C(CCC(F)(F)F)c1c(Br)cccc1Oc1ncc(Cl)cn1`
Reply | 10
